Just for reference, patent US12679836B2 is where these values come from.

molecular target: Ba/F3-EGFR L861Q cells (Homo sapiens, UniProt P00533, L861Q, cells depend on it); test: Ba/F3 cell survival assay, EGFR L861Q; type: cell-based; settings: without IL-3, without EGF, 48 h; read-out: BA/F3 (EGFR L861Q) IC50
Sequence (P00533 whole entry L861Q): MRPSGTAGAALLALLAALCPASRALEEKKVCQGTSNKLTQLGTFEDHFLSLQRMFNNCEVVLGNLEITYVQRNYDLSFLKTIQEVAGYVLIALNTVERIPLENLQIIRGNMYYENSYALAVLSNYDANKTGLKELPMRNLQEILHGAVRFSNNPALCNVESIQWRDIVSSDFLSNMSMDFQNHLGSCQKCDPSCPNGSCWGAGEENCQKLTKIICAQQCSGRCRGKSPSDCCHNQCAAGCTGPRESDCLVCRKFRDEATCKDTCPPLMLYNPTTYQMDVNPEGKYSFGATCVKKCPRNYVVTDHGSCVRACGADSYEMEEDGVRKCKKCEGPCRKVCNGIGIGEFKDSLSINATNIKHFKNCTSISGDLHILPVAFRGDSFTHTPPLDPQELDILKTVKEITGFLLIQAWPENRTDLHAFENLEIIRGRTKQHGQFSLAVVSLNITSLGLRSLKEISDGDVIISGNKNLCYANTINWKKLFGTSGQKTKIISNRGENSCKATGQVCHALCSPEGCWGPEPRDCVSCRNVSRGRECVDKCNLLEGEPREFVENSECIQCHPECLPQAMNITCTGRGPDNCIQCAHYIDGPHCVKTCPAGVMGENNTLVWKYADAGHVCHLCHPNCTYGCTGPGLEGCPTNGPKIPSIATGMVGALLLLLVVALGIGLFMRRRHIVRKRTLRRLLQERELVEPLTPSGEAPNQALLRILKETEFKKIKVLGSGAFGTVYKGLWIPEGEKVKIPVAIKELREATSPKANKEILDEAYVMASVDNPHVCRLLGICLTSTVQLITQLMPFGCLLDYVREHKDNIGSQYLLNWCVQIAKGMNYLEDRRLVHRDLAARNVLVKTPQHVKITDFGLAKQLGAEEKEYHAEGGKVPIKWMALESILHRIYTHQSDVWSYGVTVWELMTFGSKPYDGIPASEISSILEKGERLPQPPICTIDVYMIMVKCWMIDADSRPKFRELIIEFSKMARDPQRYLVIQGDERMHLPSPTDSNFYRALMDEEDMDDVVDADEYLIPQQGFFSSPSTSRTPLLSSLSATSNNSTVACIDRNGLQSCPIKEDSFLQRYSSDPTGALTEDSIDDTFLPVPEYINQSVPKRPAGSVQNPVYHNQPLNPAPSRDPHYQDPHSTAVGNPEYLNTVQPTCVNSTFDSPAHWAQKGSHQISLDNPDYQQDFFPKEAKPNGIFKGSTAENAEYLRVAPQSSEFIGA
measured-endpoint: GI50 (nM)
Kindly provide the numeric value in nM only, without the unit symbol.

Reference set (2 entries):
Incoming: In one line, give reported GI50 of the entry Cc1c(Cl)cccc1Nc1c(-c2ccncc2OCC2COC(C)(C)CO2)[nH]c2c1C(=O)NCC2 (single isomer, unassigned) [Example 46] .
Outgoing: 15.8

Incoming: In one line, give reported GI50 of the entry Cc1c(Cl)cccc1Nc1c(-c2ccncc2OC[C@H]2COCCO2)[nH]c2c1C(=O)NCC2 (single isomer, unassigned) [Example 50] .
Outgoing: 24

---
Incoming: In one line, give reported GI50 of the entry COc1c(F)cccc1Nc1c(-c2ccncc2OCC2COCCO2)[nH]c2c1C(=O)NCC2 (single isomer, unassigned) [Example 5] .
Outgoing: 30.9
